// data source = the supplement of paper PMC6607015

- Tested on: A431
- protocol: filipin (cholesterol) integrated intensity within LBPA endosomes, Z-score; higher = more cholesterol in LBPA endosomes
- condition_label: compound concentration in added solution (µM; 5 µl added to 20 µl cells): 10; 18 h
Counter-ions that a name gives are not always drawn.
endpoint_label: filipin (z-score)
Field format: numeric only.

Some compounds with recorded filipin (z-score):
compound	filipin (z-score)
O=C1CCc2cc(OCCCCc3nnnn3C3CCCCC3)ccc2N1 [Cilostazol]	-0.49
O=S(=O)(O)CCS [Mesna]	-0.454
COCC(=O)Nc1c(I)c(C(=O)NCC(O)CO)c(I)c(C(=O)N(C)CC(O)CO)c1I (centres undefined) [Iopromide]	-0.527
C[C@]12C=CC(=O)C=C1CC[C@@H]1[C@@H]2[C@@H](O)C[C@@]2(C)[C@H]1CC[C@]2(O)C(=O)CO [Prednisolone]	-0.432
N/C(=N\C(=O)c1nc(Cl)c(N)nc1N)NCc1ccccc1 [Benzamil hydrochloride]	-0.0522
Cc1ccc(C)c(OCCCC(C)(C)C(=O)O)c1 [Gemfibrozil]	-0.635
C#C[C@]1(O)CC[C@H]2[C@@H]3CCC4=CC(=O)CC[C@@H]4[C@H]3CC[C@@]21C [Norethindrone]	-0.425
CCCCCN(CCCCC)C(=O)C(CCC(=O)O)NC(=O)c1ccc(Cl)c(Cl)c1 (centres undefined) [Lorglumide sodium salt]	-0.482

Let us examine a further case.
Asked: Give the measured filipin (z-score) of CC(=O)OCC(=O)NCCCOc1cccc(CN2CCCCC2)c1 [Roxatidine Acetate HCl] .
Given back: -0.524

###

- Tested on: HeLa MZ
- protocol: LBPA endosome anti-LBPA integrated intensity (sum per cell), Z-score; higher = more LBPA staining
- condition_label: compound concentration in added solution (µM; 5 µl added to 20 µl cells): 10; 18 h
Structures can show the parent of a compound that is named as a salt.
endpoint_label: LBPA endosome anti-LBPA integrated intensity (z-score)
Answer with a number only.

compound	test_result
O=S(=O)(O)CCS	0.0893
C[C@@H]1C[C@H]2[C@@H]3CCC4=CC(=O)C=C[C@]4(C)[C@@]3(Cl)[C@@H](O)C[C@]2(C)[C@@]1(OC(=O)c1ccco1)C(=O)CCl [Mometasone furoate]	0.598
Nc1nc(=S)c2ncn([C@@H]3O[C@H](CO)[C@@H](O)[C@H]3O)c2[nH]1	1.49
CC(=O)c1ccc2c(c1)N(CCCN(C)C)c1ccccc1S2 [Acetopromazine maleate salt]	2.14
Cc1cc(=O)oc2cc(O)ccc12	-0.0954
Oc1ccc(OCc2ccccc2)cc1	2.16
Cc1nc2n(c(=O)c1CCN1CCC(c3noc4cc(F)ccc34)CC1)CCCC2	1.64
O=C(O[C@@H]1C[C@@H]2C[C@H]3C[C@H](C1)N2CC3=O)c1c[nH]c2ccccc12 [Dolasetron mesilate]	-0.27

Asked: Reported LBPA endosome anti-LBPA integrated intensity (z-score) for "O=C1c2c(O)cccc2Cc2cccc(O)c21" : what is it?
Given back: 0.592

Asked: Lookup O=C1CN(/N=C/c2ccc(-c3ccc([N+](=O)[O-])cc3)o2)C(=O)N1 [Dantrolene sodium salt]
Given back: -0.147

###

- System: HeLa MZ
- protocol: LBPA endosome anti-LBPA integrated intensity (sum per cell), Z-score; higher = more LBPA staining
- condition_label: compound concentration in added solution (µM; 5 µl added to 20 µl cells): 10; 18 h
Where a name gives a salt, the structure may show the parent alone.
Items are presented alongside their recorded LBPA endosome anti-LBPA integrated intensity (z-score).
No unit in the answer, please; the number alone is enough.

Example entries and their recorded answers appear below.
compound	test_result
CN(C)CCOC(c1ccccc1)c1ccccc1.Cn1c(=O)c2[nH]c(Cl)nc2n(C)c1=O [Dimenhydrinate]	0.504
COc1cc(-c2ccc(=O)[nH]n2)ccc1OC(F)F	0.0365
CS(=O)(=O)OCCCCOS(C)(=O)=O	-0.499
Cc1ccc(-c2ncc(Cl)cc2-c2ccc(S(C)(=O)=O)cc2)cn1	-1.03
C#C[C@]1(OC(C)=O)CC[C@H]2[C@@H]3CCC4=CC(=NO)CC[C@@H]4[C@H]3CC[C@@]21CC (mixture of isomers) [Norgestimate]	1.65

Asked: Looking for the measured LBPA endosome anti-LBPA integrated intensity (z-score) of Cc1c(C)c2c(c(C)c1O)CCC(C)(COc1ccc(CC3SC(=O)NC3=O)cc1)O2 (centres undefined) , can you help?
Given back: -0.51

Asked: Next up: O=C(CCCCC(=O)Nc1c(I)cc(I)c(C(=O)O)c1I)Nc1c(I)cc(I)c(C(=O)O)c1I [Iodipamide]
Given back: -0.366

Asked: And the next one, CCOC(=O)[C@@](C)(N)Cc1ccc(O)c(O)c1 [Methyldopate hydrochloride] ?
Given back: -0.632

Asked: Next compound up: CCOC(=O)OC(C)OC(=O)[C@@H]1N2C(=O)[C@@H](NC(=O)[C@H](N)c3ccccc3)[C@H]2SC1(C)C (some centres undefined) [Bacampicillin hydrochloride]
Given back: -1.29

Asked: Further, for CC(O)(P(=O)(O)O)P(=O)(O)O [Etidronic acid, disodium salt] ?
Given back: -0.376

Asked: Input CCN1CCC[C@H]1CNC(=O)c1c(O)c(Cl)cc(Cl)c1OC [Raclopride]
Given back: -0.235

Asked: What about "C[C@H](CCC(=O)O)[C@H]1CC[C@H]2[C@@H]3[C@H](O)C[C@@H]4C[C@H](O)CC[C@]4(C)[C@H]3CC[C@]12C" ?
Given back: -1.46

Asked: Next compound: "CCCCC[C@H](O)/C=C/[C@H]1[C@H](O)CC(=O)[C@@H]1CCCCCCC(=O)O"
Given back: -0.486

Asked: # iterate: "Nc1ccn([C@@H]2CS[C@H](CO)O2)c(=O)n1"
Given back: -0.745

Asked: Thanks! And "CCOC(=O)[N-]c1c[n+](N2CCOCC2)no1" ?
Given back: 0.0751

Asked: Do the same for O=C(c1ccccc1)c1ccc2n1CCC2C(=O)O (centres undefined) please
Given back: 0.0549

Asked: Also need CC(=O)O[C@H]1C[C@@]2(C)[C@@H](C[C@@H](O)[C@H]3[C@@]4(C)CC[C@@H](O)[C@@H](C)[C@@H]4CC[C@@]32C)/C1=C(\CCC=C(C)C)C(=O)O [Fusidic acid sodium salt] , thanks.
Given back: 0.503

Asked: Param item: CN1C2CCCC1CC(NC(=O)c1nn(C)c3ccccc13)C2 (centres undefined)
Given back: 1.05

Asked: Field entry: COCCCOc1ccnc(C[S+]([O-])c2nc3ccccc3[nH]2)c1C (centres undefined) [Rabeprazole Sodium salt]
Given back: -0.545

Asked: Also CC[N+](C)(C)Cc1ccccc1Br [Bretylium tosylate] , if possible.
Given back: -0.254

Asked: Please do the same for "Cn1c(=O)c2c(ncn2CC(=O)O)n(C)c1=O" as well.
Given back: 0.383

Asked: Param item: CC(C)(C)NCC(O)COc1cccc2c1CC(O)C(O)C2 (centres undefined)
Given back: 0.289

Asked: Queued: "COc1ccc2c(c1)c(CC(=O)OCC(=O)O)c(C)n2C(=O)c1ccc(Cl)cc1"
Given back: -0.702

Asked: Subsequent entry: "O=C1C(O)=C([C@H]2CC[C@H](c3ccc(Cl)cc3)CC2)C(=O)c2ccccc21"
Given back: -0.824

Asked: Can you check CCCNC(C)C(=O)Nc1c(C)csc1C(=O)OC (centres undefined) [Articaine hydrochloride] next?
Given back: -1.09

Asked: Can you handle CC(C)(C)NCC(O)c1cc(O)cc(O)c1 (centres undefined) [Terbutaline hemisulfate] next?
Given back: -1.35
